# tested-system: viral reverse transcriptase (Wild Type) (Human immunodeficiency virus type 1 group M subtype B)
# Construct: Viral reverse transcriptase (Wild Type) is found in extracts from bacterial clones; made in house; host or cells: Escherichia coli
# assay-protocol: inhibition of viral reverse transcriptase (Wild Type), cell free assay
# Type: biochemical
# experimental-parameters: 30 minutes at 37° C., read-out: IC50 (Table II, Wild Type)
Where a name gives a salt, the structure may show the parent alone.
# maps each entry to its log10 IC50
Please interpret these as log10 of IC50 where IC50 is in nM.

CC(Sc1nc(N)cc(Cl)n1)c1cc2c(c(Cl)n1)OCC2(C)C (centres unmarked) : 2.18

Give the measured log10 IC50 of Cc1cc2cc(C(C)Sc3nc(N)cc(C(F)(F)F)n3)nc(Cl)c2o1 (centres unmarked) .
1.91

Give the measured log10 IC50 of Cc1coc2cnc(C(C)Sc3nc(N)cc(Cl)n3)cc12 (centres unmarked) .
1.38

Give the measured log10 IC50 of `C[C@H](Sc1nc(N)cc(Cl)n1)c1cc2ccoc2cn1` .
1.30

Give the measured log10 IC50 of `Cc1coc2cnc([C@@H](C)Sc3nc(N)cc(Cl)n3)cc12` .
1.46

Give the measured log10 IC50 of CC(Sc1nc(N)cc(Cl)n1)c1cc2c(cn1)OCC2 (centres unmarked) .
1.86

Give the measured log10 IC50 of `COC(=O)/C=C/CSc1nc(N)cc(Cl)n1` .
3.72

Give the measured log10 IC50 of Cc1ccnc(C(C)Sc2nc(N)cc(Cl)n2)c1 (centres unmarked) [Example 215, hydrochloride] .
1.23

These entries and their values trace back to patent US6043248A.
